Experiment: gradient 5% acetonitrile 3 min, to 50% in 2 min, to 85% in 15 min, held 3 min, 100 µL/min
Conditions: column: Zorbax Extend-C18 2.1 x 50 mm; eluents: water / acetonitrile, 0.1% formic acid
measurement-type: RP-LC retention time (s)

In the examples that follow, each entry is paired with its recorded RP-LC retention time.
C=CCn1c(=O)c2c(nc3n2CCN3c2ccc(OC)cc2)n(C)c1=O :: 786
Cc1nnc2c(=O)n(CC(=O)NCc3ccccc3C(F)(F)F)c3cccnc3n12 :: 734
Cc1cc(N2CCN(c3ccccn3)CC2)n2nc(C(F)(F)F)c(-c3ccc(F)cc3)c2n1 :: 870

A. COc1cccc(NC(=O)CN2C(=O)c3ccccc3Sc3ncccc32)c1
B. Cc1cccc(CNC(=O)c2cc3c(-c4cccs4)nn(-c4ccccc4)c3n2C)c1
Q) Hi team, can someone confirm which has the larger RP-LC retention time: A or B ? Thanks. // output: label of the selected item
A) B
(B: 1200 s, A: 776 s)

I. CCOc1ccc(C(=O)N2CCC3(CC2)N=C(c2ccc(Cl)cc2)NO3)cc1
II. Cc1n[nH]c(C)c1S(=O)(=O)N1CCN(c2ccc3nnc(C4CC4)n3n2)CC1
Q) // max by RP-LC retention time over [ I , II ] # reply format: chosen label
A) I

a. CC1CN(c2ccc(Cl)cc2)c2nc3c(c(=O)n(C)c(=O)n3C)n2C1 (centres undefined)
b. Cc1[nH]c2ccccc2c1C(=O)CSc1n[nH]c(N)n1
Q) // compare measured RP-LC retention time, left a , right b , return larger Indicate your choice by writing its label.
A) a

a. Cc1ccc(-c2nc3nc(C)cc(N(C)CCO)n3n2)cc1
b. COC(=O)c1sccc1NC(=O)Cn1c(C)cc(C)c(-c2nc(-c3cccc(Cl)c3)no2)c1=O
Q) Short answer wanted: higher RP-LC retention time, a or b ? Refer to your chosen entry by its label in the reply.
A) b

Where these numbers come from: the METLIN SMRT retention time set (Domingo-Almenara et al. 2019)
